The measurements presented in this section are drawn from ChEMBL document CHEMBL5729720.

# subjectOfTest: UniProt:P34972
# Sequence (P34972 whole entry): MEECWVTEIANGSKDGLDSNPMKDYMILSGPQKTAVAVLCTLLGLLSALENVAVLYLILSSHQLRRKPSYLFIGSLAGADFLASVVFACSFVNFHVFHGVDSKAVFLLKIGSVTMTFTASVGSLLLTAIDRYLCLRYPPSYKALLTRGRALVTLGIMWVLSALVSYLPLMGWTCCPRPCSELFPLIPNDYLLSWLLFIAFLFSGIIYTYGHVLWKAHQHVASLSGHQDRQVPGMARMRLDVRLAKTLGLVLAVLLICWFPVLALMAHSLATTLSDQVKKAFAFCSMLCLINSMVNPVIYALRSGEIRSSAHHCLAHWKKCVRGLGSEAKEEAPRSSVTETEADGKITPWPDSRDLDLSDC
endpoint: pKi
Give bare numbers, as −log10 of the molar value.

-- ask Look up pKi: CCC(CC)(NC(=O)c1ccc(N2CC(OC)C2)c(OC[C@H]2C[C@@H]2CO)n1)C(=O)OCCCCF
-- reply 8.74
